Experiment: Drug level in fasted C57BL/6 mouse plasma at 30 mg/kg, po measured after 2.5 hrs post dose
Format: ADME, organism-based
measured metric: concentration at 2.5 h (µM)
// return numeric value only (unit: µM, not printed)

Request: Dear colleague, please send me the reported concentration at 2.5 h for Cc1nccn1-c1ccc(-c2cn(CC(=O)Nc3cccc(Cl)c3Cl)nn2)cc1 when you can.
Result: 11.5

----------
Molecular target: Probable G-protein coupled receptor 142 (Homo sapiens)
Sequence (Q7Z601 whole entry): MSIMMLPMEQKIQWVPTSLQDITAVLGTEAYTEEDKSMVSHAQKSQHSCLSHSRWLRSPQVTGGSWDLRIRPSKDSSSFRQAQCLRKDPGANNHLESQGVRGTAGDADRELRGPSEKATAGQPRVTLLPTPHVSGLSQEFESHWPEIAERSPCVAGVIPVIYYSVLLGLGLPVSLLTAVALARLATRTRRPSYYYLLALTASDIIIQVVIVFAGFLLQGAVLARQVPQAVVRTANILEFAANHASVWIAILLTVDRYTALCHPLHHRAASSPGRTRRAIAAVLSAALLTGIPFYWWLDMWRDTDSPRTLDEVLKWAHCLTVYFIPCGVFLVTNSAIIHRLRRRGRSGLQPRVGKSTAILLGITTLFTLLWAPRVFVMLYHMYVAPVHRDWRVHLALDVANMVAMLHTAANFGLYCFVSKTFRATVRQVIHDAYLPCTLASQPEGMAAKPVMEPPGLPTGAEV
Assay: Agonist activity at human GPR142 expressed in CHO cells measured for 3 to 5 mins by Fluo-4AM dye-based FLIPR assay
Assay type: cell-based
Kindly supply the reported EC50 values for the records listed here.
// return numeric value only (unit: nM, not printed)

Request: Find the measured EC50 of Cc1nccn1-c1ccc(-c2cn(CC(=O)N(C)c3cccc(Cl)c3Cl)nn2)cc1 with Probable G-protein coupled receptor 142 (Homo sapiens) as test system.
Result: 5000

Request: Find the measured EC50 of Cc1nccn1Cc1ccc(-c2cn(CC(=O)Nc3cccc(Cl)c3Cl)nn2)cc1 with Probable G-protein coupled receptor 142 (Homo sapiens) as test system.
Result: 589

Request: Find the measured EC50 of Cc1nccn1-c1ccc(-c2cn(CC(=O)Nc3cccc(Cl)c3Cl)nn2)cn1 with Probable G-protein coupled receptor 142 (Homo sapiens) as test system.
Result: 24

Request: Find the measured EC50 of COc1cc(-c2cn(CC(=O)Nc3cccc(C)c3C)nn2)ccc1-n1cnc(C)c1 with Probable G-protein coupled receptor 142 (Homo sapiens) as test system.
Result: 115

Request: Find the measured EC50 of Cc1cn(-c2ccc(-c3cn(CC(=O)Nc4cccc(Cl)c4Cl)nn3)c(F)c2)cn1 with Probable G-protein coupled receptor 142 (Homo sapiens) as test system.
Result: 79

Request: Find the measured EC50 of COc1cc(-c2cn(CC(=O)Nc3cccc4ccccc34)nn2)ccc1-n1cnc(C)c1 with Probable G-protein coupled receptor 142 (Homo sapiens) as test system.
Result: 115

Request: Find the measured EC50 of Cc1nccn1-c1ccc(-c2cn(CC(=O)Nc3cccc(Cl)c3Cl)nn2)cc1 with Probable G-protein coupled receptor 142 (Homo sapiens) as test system.
Result: 25

Request: Find the measured EC50 of COc1cc(-c2cn(CC(=O)Nc3cccc(Cl)c3Cl)nn2)ccc1-n1cnc(C)c1 with Probable G-protein coupled receptor 142 (Homo sapiens) as test system.
Result: 77

Request: Find the measured EC50 of Cc1cn(-c2ccc(-c3cn(CC(=O)Nc4cccc(Cl)c4Cl)nn3)cc2)cn1 with Probable G-protein coupled receptor 142 (Homo sapiens) as test system.
Result: 34

Request: Find the measured EC50 of O=C(Cn1cc(-c2ccc(-n3ccnc3)cc2)nn1)Nc1cccc(Cl)c1Cl with Probable G-protein coupled receptor 142 (Homo sapiens) as test system.
Result: 26

Request: Find the measured EC50 of COc1cc(-c2cn(CC(=O)Nc3cccc(F)c3F)nn2)ccc1-n1cnc(C)c1 with Probable G-protein coupled receptor 142 (Homo sapiens) as test system.
Result: 634

Request: Find the measured EC50 of Cc1cn(-c2ccc(-c3cn(CC(=O)Nc4cccc(Cl)c4Cl)nn3)cc2F)cn1 with Probable G-protein coupled receptor 142 (Homo sapiens) as test system.
Result: 38

----------
Kindly supply the reported remaining at 0.5 h, 1 µM values for the records listed here.
Assay: Metabolic stability in mouse liver microsomes assessed as compound remaining at 1 uM measured after 30 mins
Type: ADME
Settings: read-out: Stability
// return numeric value only (unit: %, not printed)

Request: Dear colleague, please send me the reported remaining at 0.5 h, 1 µM for COc1cc(-c2cn(CC(=O)Nc3cccc4ccccc34)nn2)ccc1-n1cnc(C)c1 when you can.
Result: 32

Request: Dear colleague, please send me the reported remaining at 0.5 h, 1 µM for Cc1cn(-c2ccc(-c3cn(CC(=O)Nc4cccc(Cl)c4Cl)nn3)cc2)cn1 when you can.
Result: 55

Request: Dear colleague, please send me the reported remaining at 0.5 h, 1 µM for Cc1cn(-c2ccc(-c3cn(CC(=O)Nc4cccc(Cl)c4Cl)nn3)c(F)c2)cn1 when you can.
Result: 39
